System: AMPKa
measurement_notes: Kinase Selectivity Assay (CEREP, HTRF)
Assay type: biochemical, human
quantity_name: % Inhibition at 10 μM Concentration, AMPKalpha (%)
Numbers only, in %.

molecule | measure_unit | experimental_value
O=C1Nc2ccccc2C1=Cc1ccc2c(/C=C/c3ccccn3)n[nH]c2c1 (mixture of isomers) | % | 81
O=C1Nc2ccccc2/C1=C\c1ccc2c(/C=C/c3ccccc3Cl)n[nH]c2c1 | % | 8
O=C1Nc2ccccc2/C1=C\c1ccc2cn[nH]c2c1 | % | 54
O=C1Nc2ccccc2/C1=C\c1ccc2[nH]nnc2c1 | % | 15

Kindly consider the entry below.
Noted for COc1ccc2c(c1)C(=Cc1ccc3c(-c4ccc(N5CCN(C)CC5)nc4)n[nH]c3c1)C(=O)N2 (mixture of isomers) : its % Inhibition at 10 μM Concentration, AMPKalpha reads 76

Just for reference, patent US8765748B2 is where these values come from.
